Field: reverse-splicing fitness. Provide a value for each of the variants that follow.
B1: Azoarcus group I ribozyme (parent)
chain: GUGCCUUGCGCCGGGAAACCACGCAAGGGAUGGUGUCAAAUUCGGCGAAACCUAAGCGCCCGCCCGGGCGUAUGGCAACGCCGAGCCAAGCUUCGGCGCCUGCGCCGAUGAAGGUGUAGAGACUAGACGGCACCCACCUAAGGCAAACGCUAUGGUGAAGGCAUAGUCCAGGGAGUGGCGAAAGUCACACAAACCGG

Variants of: B1
assay_protocol: reverse-splicing fitness (ratio to wild type); higher = more active; in vitro selection; Mg2+ level not given

Take a look at these entries with their results.
In [3]: df
Out[3]:
                                  mutations             readout_label  value_observed
0              C82U A111U A145U C150G U176A  reverse-splicing fitness          0.0103
1              C82G A120G A145G C150G U176G  reverse-splicing fitness         0.00614
2  C82A A111G A120G A145U C150G C169A U176C  reverse-splicing fitness          0.0101
3                         C150G C169A U176G  reverse-splicing fitness         0.00618
4             A111C A145G C150G C169G U176C  reverse-splicing fitness          0.0102

Query: Bench note: what reverse-splicing fitness did C82A A111G A120C A145U C150G C169A U176G show?
Response: 0.00597
